# measurement-target: DRB3*0101 (Homo sapiens, UniProt P01903+P79483)
# procedure-text: biochemical
# Assay type: binding
pIC50: −log10 of the molar value. No end group written: not given here.
Recorded pIC50 for the following sequences
endpoint-label: pIC50

- macromolecule-sequence: "NMSLLKHQSLRPDED [Peptide 68.0009]"
  reported: "< 4.70"
- macromolecule-sequence: "EDLRTLQQLFLSTLS [Peptide 1543.21]"
  reported: "< 4.70"
- macromolecule-sequence: "QMMLETLNNTEYKNE [Peptide 1601.22]"
  reported: "< 4.70"
- macromolecule-sequence: "STSDDTVSATQIVRQ [Peptide 1601.31]"
  reported: "< 4.70"
- macromolecule-sequence: "QRFHNIRGRWTGRCM [Peptide 1543.27]"
  reported: "< 4.70"
- macromolecule-sequence: "LYCYEQLSDSSDEDE [Peptide 1543.13]"
  reported: "< 4.70"
- macromolecule-sequence: "YIVMSDWTGGA [Peptide 510.33]"
  reported: "< 4.48"
- macromolecule-sequence: "SEVYDFVFADLRIVY [Peptide 1543.48]"
  reported: 6.25
- macromolecule-sequence: "DFEVFFQRLGIASGR [Peptide 68.0114]"
  reported: "< 4.70"
- macromolecule-sequence: "CIHSTATDLRTLQQM [Peptide 1543.45]"
  reported: "< 4.70"

----------
Recorded pIC50 for the following sequences
# measurement-target: DRB1*0301 (Homo sapiens, UniProt P01903+P01911, A100K/A102G/A103R/A169T/F55Y/I96L/K41T/L162R/M171V/P40S/Q125H/Q178H/Q39Y/R42S/S66N/T106N/T262R/W38E/Y61H)
# Sequence (P01903 26-254 limits assumed, other chains not shown): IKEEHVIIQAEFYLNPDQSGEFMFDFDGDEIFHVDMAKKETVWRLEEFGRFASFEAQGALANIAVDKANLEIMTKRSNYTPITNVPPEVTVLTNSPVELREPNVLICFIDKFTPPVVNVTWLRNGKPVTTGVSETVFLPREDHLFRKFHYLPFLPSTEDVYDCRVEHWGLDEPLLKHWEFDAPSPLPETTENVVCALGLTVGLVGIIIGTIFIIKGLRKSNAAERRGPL
# procedure-text: biochemical
# Type: binding
pIC50: −log10 of the molar value. No end group written: not given here.

- macromolecule-sequence: "FQVIELQMALETLNA [Peptide 90.0025]"
  pIC50: 6.13
- macromolecule-sequence: "VSKLMSQLLNIPETH [Peptide 89.0101]"
  pIC50: 6.04
- macromolecule-sequence: "KERHVNANKRFHNIM [Peptide 1543.59]"
  pIC50: 5.87

----------
# measurement-target: DRB1*0405 (Homo sapiens, UniProt P01903+P01911, A100R/A169T/D86S/F76Y/I96L/K127E/L162R/M171V/N62H/P40V/Q125Y/R42H/S133A/S149N/S66Y/V115G/V209L/W38E)
# procedure-text: biochemical
# Format: binding
No end group written: not given here.
Recorded IC50 for the following sequences

- macromolecule-sequence: "RDSVDSAPILTAFNS [Peptide 89.0156]"
  IC50: "> 20 µM"
- macromolecule-sequence: "SQLLNIPETHMVIEP [Peptide 89.0102]"
  IC50: "> 20 µM"
- macromolecule-sequence: "LVQIKCPPLLITTNI [Peptide 89.0138]"
  IC50: "> 20 µM"
- macromolecule-sequence: "VDFIVNDNDYLTQAE [Peptide 90.0031]"
  IC50: "> 20 µM"
- macromolecule-sequence: "KIGMIDDVTPISWTY [Peptide 90.0087]"
  IC50: "> 20 µM"
- macromolecule-sequence: "DNDIVDDSEIAYKYA [Peptide 90.0037]"
  IC50: "> 20 µM"
- macromolecule-sequence: "STSDDTVSATQIVRQ [Peptide 1601.31]"
  IC50: "> 20 µM"
- macromolecule-sequence: "DWCIIGMGVTPSVAE [Peptide 89.0096]"
  IC50: "> 20 µM"
- macromolecule-sequence: "AQEVHNDAQVLHVLK [Peptide 90.0047]"
  IC50: "> 20 µM"
